Target: T1, human SEMA4D, full length, on CHO-K1 cells (CHO-K1 hSEMA4D) (human, UniProt Q92854 22-862)
T1 construct: whole, on cells; also called human SEMA4D recombinant cells
T1 sequence (looked up): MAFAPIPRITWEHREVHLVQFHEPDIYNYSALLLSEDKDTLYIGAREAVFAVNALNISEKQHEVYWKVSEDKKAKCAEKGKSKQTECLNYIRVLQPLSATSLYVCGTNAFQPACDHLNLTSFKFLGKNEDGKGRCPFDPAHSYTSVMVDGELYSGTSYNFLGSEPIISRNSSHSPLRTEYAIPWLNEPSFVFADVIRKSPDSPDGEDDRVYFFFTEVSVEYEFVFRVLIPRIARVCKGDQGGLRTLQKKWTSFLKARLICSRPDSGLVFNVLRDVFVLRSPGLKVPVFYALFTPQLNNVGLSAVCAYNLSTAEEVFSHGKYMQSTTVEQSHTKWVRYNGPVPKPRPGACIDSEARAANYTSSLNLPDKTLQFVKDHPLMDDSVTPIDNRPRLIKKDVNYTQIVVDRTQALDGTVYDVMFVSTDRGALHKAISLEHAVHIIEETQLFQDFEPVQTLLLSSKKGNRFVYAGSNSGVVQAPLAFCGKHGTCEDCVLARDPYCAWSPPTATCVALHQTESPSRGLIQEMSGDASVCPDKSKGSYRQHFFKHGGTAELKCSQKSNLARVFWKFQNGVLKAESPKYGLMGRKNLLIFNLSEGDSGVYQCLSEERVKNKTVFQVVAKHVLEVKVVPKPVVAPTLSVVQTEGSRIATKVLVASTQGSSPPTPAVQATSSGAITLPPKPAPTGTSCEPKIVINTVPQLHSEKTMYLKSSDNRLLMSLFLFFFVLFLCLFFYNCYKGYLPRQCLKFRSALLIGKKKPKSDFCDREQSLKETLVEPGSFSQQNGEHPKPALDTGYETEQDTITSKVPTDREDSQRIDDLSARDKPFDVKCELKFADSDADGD
Assay: FACS, CHO-K1 hSEMA4D cells; Ab 0.00427 nM

[
  {
    "binder": "32C8F10 (antibody, V domains shown, Mouse monoclonal antibody purified from hybridoma supernatant on protein A) VH: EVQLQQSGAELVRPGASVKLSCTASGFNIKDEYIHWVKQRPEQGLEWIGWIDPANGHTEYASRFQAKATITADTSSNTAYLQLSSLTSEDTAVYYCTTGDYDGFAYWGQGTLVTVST VL: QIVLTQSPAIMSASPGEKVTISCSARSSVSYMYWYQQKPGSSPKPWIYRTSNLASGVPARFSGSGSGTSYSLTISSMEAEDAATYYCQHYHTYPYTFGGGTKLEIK",
    "MFI": 86.2
  },
  {
    "binder": "38H2E3 (antibody, V domains shown, Mouse monoclonal antibody purified from hybridoma supernatant on protein A) VH: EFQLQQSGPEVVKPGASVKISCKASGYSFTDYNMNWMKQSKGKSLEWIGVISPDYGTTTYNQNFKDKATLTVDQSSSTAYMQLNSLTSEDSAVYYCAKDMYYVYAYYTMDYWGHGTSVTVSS VL: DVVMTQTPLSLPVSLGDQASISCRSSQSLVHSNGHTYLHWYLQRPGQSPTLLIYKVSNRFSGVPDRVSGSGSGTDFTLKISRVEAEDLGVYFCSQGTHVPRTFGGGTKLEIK",
    "MFI": 45.4
  },
  {
    "binder": "37C4F7 (antibody, V domains shown, Mouse monoclonal antibody purified from hybridoma supernatant on protein A) VH: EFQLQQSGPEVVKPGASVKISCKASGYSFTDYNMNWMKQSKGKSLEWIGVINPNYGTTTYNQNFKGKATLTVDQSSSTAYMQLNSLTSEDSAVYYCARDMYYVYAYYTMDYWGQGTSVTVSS VL: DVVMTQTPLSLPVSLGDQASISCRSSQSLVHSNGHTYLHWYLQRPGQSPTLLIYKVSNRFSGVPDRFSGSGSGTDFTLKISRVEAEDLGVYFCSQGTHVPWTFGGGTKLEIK",
    "MFI": 45.4
  },
  {
    "binder": "37F11F9 (antibody, V domains shown, Mouse monoclonal antibody purified from hybridoma supernatant on protein A) VH: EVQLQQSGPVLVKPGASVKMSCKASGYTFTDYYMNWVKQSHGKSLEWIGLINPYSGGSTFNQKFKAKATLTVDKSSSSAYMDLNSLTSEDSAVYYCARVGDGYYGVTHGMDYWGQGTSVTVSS VL: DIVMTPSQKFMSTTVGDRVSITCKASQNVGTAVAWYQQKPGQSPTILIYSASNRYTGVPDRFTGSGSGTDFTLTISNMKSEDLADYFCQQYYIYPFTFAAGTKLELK",
    "MFI": 51
  }
]
